Reported AC50 by item:
Biological target: UniProtKB P41595
Sequence (P41595 whole entry): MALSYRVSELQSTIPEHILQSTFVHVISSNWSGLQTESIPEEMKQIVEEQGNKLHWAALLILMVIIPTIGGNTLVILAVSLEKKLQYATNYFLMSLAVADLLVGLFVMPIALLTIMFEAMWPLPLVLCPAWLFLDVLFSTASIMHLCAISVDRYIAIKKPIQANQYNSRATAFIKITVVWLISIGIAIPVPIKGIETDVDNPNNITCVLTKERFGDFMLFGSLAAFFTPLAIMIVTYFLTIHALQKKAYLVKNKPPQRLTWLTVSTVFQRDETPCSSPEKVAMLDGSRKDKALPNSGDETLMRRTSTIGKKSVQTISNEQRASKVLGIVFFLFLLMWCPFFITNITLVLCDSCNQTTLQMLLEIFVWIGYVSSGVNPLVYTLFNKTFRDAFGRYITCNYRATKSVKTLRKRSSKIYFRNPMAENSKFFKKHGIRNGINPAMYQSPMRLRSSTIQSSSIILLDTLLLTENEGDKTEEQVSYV
Assay type: functional, cell-based
Where a SMILES comes first, the peptide text is derived from it. [ ]: non-standard residue; d: D form. pGlu = O=C1CC[C@@H](C(=O)O)N1; Thz = O=C(O)[C@@H]1CSCN1

Sample answers from the record:
## Input Could you share what AC50 was measured for C[C@]12CCC(=O)C[C@@H]1CC[C@@H]1[C@@H]2CC[C@]2(C)[C@@H](O)CC[C@@H]12 , tested on UniProtKB P41595?
## Output > 30 µM

## Input Checklist item: AC50 tested on UniProtKB P41595, entry C/C=C(/C(=C/C)c1ccc(O)cc1)c1ccc(O)cc1 , value?
## Output > 10 µM

## Input Provide the documented AC50 with UniProtKB P41595 as the system for CC(C)c1cccc(C(C)C)c1O
## Output > 30 µM

## Input Identify the measured AC50 of CC1=C(C(=O)OC(C)C)C(c2cccc([N+](=O)[O-])c2)C(C(=O)OC2CN(C(c3ccccc3)c3ccccc3)C2)=C(N)N1 (stereo not drawn) for UniProtKB P41595.
## Output > 30 µM

## Input Enter reported AC50 observed with UniProtKB P41595 for CCOc1nc2cccc(C(=O)O)c2n1Cc1ccc(-c2ccccc2-c2nnn[nH]2)cc1
## Output > 30 µM

Others:
## Input Entry O=C1CC[C@@H](C(=O)N2CSC[C@H]2C(=O)O)N1 [PIDOTIMOD] ([pGlu]-[Thz]-OH) , system UniProtKB P41595: what AC50 was measured?
## Output > 30 µM

## Input Give UniProtKB P41595 AC50 for CCCCCCCN(CC)CCCC(O)c1ccc(NS(C)(=O)=O)cc1 (stereo not drawn) [IBUTILIDE]
## Output > 30 µM

## Input Item: Cc1nnc(SCC2=C(C(=O)O)N3C(=O)[C@@H](NC(=O)Cn4cnnn4)[C@H]3SC2)s1 Test system: UniProtKB P41595 Read-out: AC50 Value: ?
## Output > 300 µM

====

Target: Voltage-gated inwardly rectifying potassium channel KCNH2 (Homo sapiens, UniProt Q12809); further: assay procedure not described here
Sequence (Q12809 whole entry): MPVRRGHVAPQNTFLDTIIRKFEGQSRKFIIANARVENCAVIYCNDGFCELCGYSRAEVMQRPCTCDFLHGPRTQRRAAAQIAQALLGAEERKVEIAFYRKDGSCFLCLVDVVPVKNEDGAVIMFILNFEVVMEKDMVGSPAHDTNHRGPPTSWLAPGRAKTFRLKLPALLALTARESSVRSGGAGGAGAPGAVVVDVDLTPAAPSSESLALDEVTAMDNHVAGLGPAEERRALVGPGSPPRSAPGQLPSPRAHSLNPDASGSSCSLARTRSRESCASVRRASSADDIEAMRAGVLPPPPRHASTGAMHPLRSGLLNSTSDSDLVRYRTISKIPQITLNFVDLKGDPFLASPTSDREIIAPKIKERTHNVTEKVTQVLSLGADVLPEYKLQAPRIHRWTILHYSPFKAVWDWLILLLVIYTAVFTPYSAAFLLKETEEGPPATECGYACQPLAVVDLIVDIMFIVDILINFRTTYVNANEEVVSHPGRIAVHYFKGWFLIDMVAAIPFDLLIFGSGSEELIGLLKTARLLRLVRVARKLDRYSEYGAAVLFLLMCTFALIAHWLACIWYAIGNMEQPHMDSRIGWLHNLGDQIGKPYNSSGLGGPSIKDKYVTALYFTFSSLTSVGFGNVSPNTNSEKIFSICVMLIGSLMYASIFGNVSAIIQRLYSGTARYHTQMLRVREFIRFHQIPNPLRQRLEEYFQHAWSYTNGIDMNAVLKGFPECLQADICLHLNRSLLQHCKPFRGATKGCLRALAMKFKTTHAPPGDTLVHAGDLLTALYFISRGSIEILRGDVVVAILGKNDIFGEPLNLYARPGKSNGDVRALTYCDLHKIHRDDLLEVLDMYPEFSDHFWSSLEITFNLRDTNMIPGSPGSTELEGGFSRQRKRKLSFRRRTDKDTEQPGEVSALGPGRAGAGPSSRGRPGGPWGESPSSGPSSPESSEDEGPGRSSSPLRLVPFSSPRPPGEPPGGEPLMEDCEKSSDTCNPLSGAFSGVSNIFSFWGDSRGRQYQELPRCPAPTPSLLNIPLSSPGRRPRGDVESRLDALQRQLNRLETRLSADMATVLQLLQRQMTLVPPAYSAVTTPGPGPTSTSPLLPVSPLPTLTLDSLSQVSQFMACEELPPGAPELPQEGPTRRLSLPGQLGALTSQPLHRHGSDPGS
Format: functional
Reported Metric: AC50

As a guide, the following entries are already answered.
## Input Lookup: AC50 / Voltage-gated inwardly rectifying potassium channel KCNH2 (Homo sapiens, UniProt Q12809) / C[N+]1(C)CCC(=C(c2ccccc2)c2ccccc2)CC1
## Output 0.187 µM

## Input Form: Entry = O=C1OC(OC(=O)c2cccnc2Nc2cccc(C(F)(F)F)c2)c2ccccc21 (stereo not given) [TALNIFLUMATE] | System = Voltage-gated inwardly rectifying potassium channel KCNH2 (Homo sapiens, UniProt Q12809) | AC50 = ____; further: assay procedure not described here
## Output > 30 µM

## Input Item: COc1cc(C)c(/C=C/C(C)=C/C=C/C(C)=C/C(=O)O)c(C)c1C Test system: Voltage-gated inwardly rectifying potassium channel KCNH2 (Homo sapiens, UniProt Q12809) Read-out: AC50 Value: ?; further: assay procedure not described here
## Output > 30 µM

## Input Please tell me: AC50 of CC(C)[C@@H](C)/C=C/[C@@H](C)[C@H]1CC[C@H]2/C(=C/C=C3\C[C@@H](O)CC[C@@H]3C)CCC[C@]12C [DIHYDROTACHYSTEROL] , system Voltage-gated inwardly rectifying potassium channel KCNH2 (Homo sapiens, UniProt Q12809)?; further: assay procedure not described here
## Output > 30 µM

## Input Param readout = AC50; param system = Voltage-gated inwardly rectifying potassium channel KCNH2 (Homo sapiens, UniProt Q12809); param query = CCC1(c2ccc(N)cc2)CCC(=O)NC1=O (stereo not given) [AMINOGLUTETHIMIDE] ; response: value; further: assay procedure not described here
## Output > 30 µM

Others:
## Input What value of AC50 on Voltage-gated inwardly rectifying potassium channel KCNH2 (Homo sapiens, UniProt Q12809) does COC(=O)[C@H]1[C@H]2C[C@@H]3c4[nH]c5cc(OC)ccc5c4CCN3C[C@H]2C[C@@H](OC(=O)c2cc(OC)c(OC)c(OC)c2)[C@@H]1OC have?
## Output 1.46 µM

## Input Please tell me: AC50 of C/C=C(/C(=C/C)c1ccc(O)cc1)c1ccc(O)cc1 , system Voltage-gated inwardly rectifying potassium channel KCNH2 (Homo sapiens, UniProt Q12809)?; further: assay procedure not described here
## Output > 30 µM

## Input Reported AC50 for Voltage-gated inwardly rectifying potassium channel KCNH2 (Homo sapiens, UniProt Q12809), given CC(c1cc2ccccc2s1)N(O)C(N)=O (stereo not given) ?
## Output > 30 µM

## Input Under Voltage-gated inwardly rectifying potassium channel KCNH2 (Homo sapiens, UniProt Q12809): AC50 value of CCOC(=O)c1c(CSc2ccccc2)n(C)c2cc(Br)c(O)c(CN(C)C)c12 ?
## Output 0.61 µM

## Input Form: Entry = CCOC(=O)[C@@H](N)Cc1ccc(-c2cc(O[C@H](c3ccc(Cl)cc3-n3ccc(C)n3)C(F)(F)F)nc(N)n2)cc1 | System = Voltage-gated inwardly rectifying potassium channel KCNH2 (Homo sapiens, UniProt Q12809) | AC50 = ____; further: assay procedure not described here
## Output 26 µM

====

Entries and their AC50 values follow.
Molecular target: Beta-1 adrenergic receptor (Homo sapiens, UniProt P08588); further: assay procedure not described here
Sequence (P08588 whole entry): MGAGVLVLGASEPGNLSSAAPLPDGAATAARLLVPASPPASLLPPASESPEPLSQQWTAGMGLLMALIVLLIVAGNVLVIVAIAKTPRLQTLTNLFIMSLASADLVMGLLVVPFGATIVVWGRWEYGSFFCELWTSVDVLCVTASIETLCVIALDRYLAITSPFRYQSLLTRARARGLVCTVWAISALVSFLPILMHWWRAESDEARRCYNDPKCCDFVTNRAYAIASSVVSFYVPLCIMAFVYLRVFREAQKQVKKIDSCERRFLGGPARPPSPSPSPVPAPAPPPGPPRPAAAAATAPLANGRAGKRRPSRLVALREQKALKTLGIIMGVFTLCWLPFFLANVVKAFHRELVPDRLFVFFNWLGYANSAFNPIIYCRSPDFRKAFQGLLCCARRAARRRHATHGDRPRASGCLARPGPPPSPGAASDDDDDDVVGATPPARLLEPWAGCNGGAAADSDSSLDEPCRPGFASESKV
Format: functional

Before answering, review these 5 worked examples.
## Input Give the measured AC50 of CCOC(=O)C1=C(C)NC(C)=C(C(=O)OCC)C1c1ccccc1/C=C/C(=O)OC(C)(C)C .
## Output > 30 µM

## Input So what's the measured AC50 for this one? COc1ccc(C2C(=O)c3ccccc3C2=O)cc1
## Output > 10 µM

## Input // query AC50 value for entry CN[C@@H](C)[C@@H](O)c1ccccc1
## Output > 10 µM

## Input # AC50 lookup, item CCC(=O)O[C@]1(C(=O)CCl)[C@@H](C)C[C@H]2[C@@H]3CCC4=CC(=O)C=C[C@]4(C)[C@@]3(F)[C@@H](O)C[C@@]21C [CLOBETASOL PROPIONATE]
## Output > 30 µM

## Input Name the reported AC50 value associated with the compound CCOC(=O)[C@@H](N)Cc1ccc(-c2cc(O[C@H](c3ccc(Cl)cc3-n3ccc(C)n3)C(F)(F)F)nc(N)n2)cc1
## Output > 30 µM

Switching to the query record.
## Input Which AC50 reading was recorded for the compound CC=CC1=C(C(=O)O)N2C(=O)[C@@H](NC(=O)[C@H](N)c3ccc(O)cc3)[C@H]2SC1 ?
## Output > 30 µM

====

Molecular target: Progesterone receptor (Homo sapiens); further: assay procedure not described here
Sequence (P06401 whole entry): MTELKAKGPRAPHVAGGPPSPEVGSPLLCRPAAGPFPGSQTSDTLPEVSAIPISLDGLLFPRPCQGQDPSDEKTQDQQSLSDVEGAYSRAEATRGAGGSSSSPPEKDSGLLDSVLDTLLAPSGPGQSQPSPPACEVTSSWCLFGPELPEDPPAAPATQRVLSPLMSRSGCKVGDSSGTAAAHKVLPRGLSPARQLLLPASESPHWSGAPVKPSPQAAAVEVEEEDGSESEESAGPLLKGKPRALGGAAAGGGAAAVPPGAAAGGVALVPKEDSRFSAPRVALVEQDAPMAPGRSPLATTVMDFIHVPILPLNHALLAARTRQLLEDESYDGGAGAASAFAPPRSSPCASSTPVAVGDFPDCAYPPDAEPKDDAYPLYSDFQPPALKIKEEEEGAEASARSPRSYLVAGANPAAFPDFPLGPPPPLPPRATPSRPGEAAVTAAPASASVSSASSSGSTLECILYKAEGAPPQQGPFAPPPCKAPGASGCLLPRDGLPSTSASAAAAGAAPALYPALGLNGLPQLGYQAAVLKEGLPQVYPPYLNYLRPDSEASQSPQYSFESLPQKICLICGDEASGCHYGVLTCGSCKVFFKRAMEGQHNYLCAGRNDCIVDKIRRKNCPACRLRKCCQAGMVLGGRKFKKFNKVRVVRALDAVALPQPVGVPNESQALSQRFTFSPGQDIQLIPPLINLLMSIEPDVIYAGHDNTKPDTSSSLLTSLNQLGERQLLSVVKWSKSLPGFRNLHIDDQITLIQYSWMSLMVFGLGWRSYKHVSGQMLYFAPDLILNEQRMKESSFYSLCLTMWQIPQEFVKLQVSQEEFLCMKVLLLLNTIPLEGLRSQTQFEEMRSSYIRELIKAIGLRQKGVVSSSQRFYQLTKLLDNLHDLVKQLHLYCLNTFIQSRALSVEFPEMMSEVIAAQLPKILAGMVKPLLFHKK
Format: functional
Reported Metric: AC50

Example cases with answers are listed next.
## Input I am curious: what AC50 value has been reported for CN(CCOc1ccc(CC2SC(=O)NC2=O)cc1)c1ccccn1 (configuration not stated) ?
## Output > 30 µM

## Input Item under review: COC(=O)[C@H]1[C@H]2C[C@@H]3c4[nH]c5cc(OC)ccc5c4CCN3C[C@H]2C[C@@H](OC(=O)c2cc(OC)c(OC)c(OC)c2)[C@@H]1OC . Reported AC50?
## Output > 10 µM

## Input Find the recorded AC50 belonging to CC(C)[C@@H](C)/C=C/[C@@H](C)[C@H]1CC[C@H]2/C(=C/C=C3\C[C@@H](O)CC[C@@H]3C)CCC[C@]12C [DIHYDROTACHYSTEROL] and report it.
## Output 11.2 µM

***
## Input Request the reported AC50 associated with CC(=O)Nc1ccc(CC(=O)O)cc1
## Output > 30 µM

## Input I would be grateful if you could share the reported AC50 for CC(C)c1cccc(C(C)C)c1O .
## Output > 30 µM

## Input Consider the compound shown here: CN[C@]1(c2ccccc2Cl)CCCCC1=O What is its recorded AC50?
## Output > 30 µM

## Input Fill blank: measured AC50 of the compound COc1ccccc1OC1(C)OC(=O)c2ccccc2O1 (configuration not stated) is ____.
## Output > 30 µM

## Input Using the record for Cn1c(=O)c2c(ncn2CCOC(=O)C(C)(C)Oc2ccc(Cl)cc2)n(C)c1=O [THEOFIBRATE] , report its AC50.
## Output > 30 µM

## Input Entry CC(CN(C)C)C(C)(O)Cc1ccc(Cl)cc1 (configuration not stated) : reported AC50 = ?
## Output > 30 µM

## Input Entry O=S1(=O)CCN(CN2CCS(=O)(=O)NC2)CN1 : reported AC50 = ?
## Output > 30 µM

## Input Entry C[N+]1(C)CCC(=C(c2ccccc2)c2ccccc2)CC1 has what AC50?
## Output > 10 µM

## Input Item CC(C)C[C@H](NC(=O)[C@@H](O)[C@H](N)Cc1ccccc1)C(=O)O has what recorded AC50?
## Output > 30 µM

## Input Item COc1cc(C)c(/C=C/C(C)=C/C=C/C(C)=C/C(=O)O)c(C)c1C has what recorded AC50?
## Output > 30 µM

## Input // lookup AC50 for CCOC(=O)C1=C(C)NC(C)=C(C(=O)OCC)C1c1ccccc1/C=C/C(=O)OC(C)(C)C
## Output 29 µM

## Input Reported AC50 for COc1cc2[nH]c(C)c(CCN3CCN(c4ccccc4)CC3)c2cc1OC : what is it?
## Output > 30 µM

## Input Name the reported AC50 value associated with the compound Cc1nc(Nc2ncc(C(=O)Nc3c(C)cccc3Cl)s2)cc(N2CCN(CCO)CC2)n1
## Output > 30 µM

## Input Name the reported AC50 value associated with the compound C=C1c2cccc(O)c2C(=O)C2=C(O)[C@]3(O)C(=O)C(C(N)=O)=C(O)[C@@H](N(C)C)[C@@H]3[C@@H](O)[C@H]12
## Output > 30 µM

## Input Entry CCCc1cc(=O)[nH]c(=S)[nH]1 : reported AC50 = ?
## Output > 10 µM

## Input Looking for the measured AC50 of C=CCN1CCc2nc(N)sc2CC1 [TALIPEXOLE] , can you help?
## Output > 30 µM
